# Tested on: K. pneumoniae NCTC418
# Details: supplementary CSV; ranges of Table 1 given as one number
Non-standard residues stand in square brackets, D forms with d. Residues, ends and D or L forms follow the SMILES beside them.
Entries and their MIC K. pneumoniae NCTC418 values follow.
Entry rule: numbers only, all in µg/mL.

Molecule: CC(C)C[C@H](NC(=O)[C@H](CC(C)C)NC(=O)[C@H](CC(C)C)NC(=O)[C@H](CCCCN)NC(=O)[C@@H](CC(C)C)NC(=O)[C@@H](CC(C)C)NC(=O)[C@H](CCCCN)NC(=O)[C@H](CC(C)C)NC(=O)[C@H](CC(C)C)NC(=O)[C@H](CCCCN)NC(=O)[C@@H](N)CCCCN)C(N)=O [HP6, KKLLKllKLLL]
Meas Value: 64
//
Molecule: CC(C)C[C@H](NC(=O)[C@H](CC(C)C)NC(=O)[C@H](CC(C)C)NC(=O)[C@H](CCCCN)NC(=O)[C@H](CC(C)C)NC(=O)[C@H](CC(C)C)NC(=O)[C@H](CCCCN)NC(=O)[C@H](CC(C)C)NC(=O)[C@H](CC(C)C)NC(=O)[C@@H](CCCCN)NC(=O)[C@H](N)CCCCN)C(N)=O [HP2]
Meas Value: 3

Let's switch to this molecule now.
Query :: Which MIC K. pneumoniae NCTC418 reading was recorded for the molecule CC(C)C[C@H](NC(=O)[C@H](CC(C)C)NC(=O)[C@H](CC(C)C)NC(=O)[C@@H](CCCNC(=N)N)NC(=O)[C@H](CC(C)C)NC(=O)[C@H](CC(C)C)NC(=O)[C@@H](CCCNC(=N)N)NC(=O)[C@H](CC(C)C)NC(=O)[C@H](CC(C)C)NC(=O)[C@@H](CCCNC(=N)N)NC(=O)[C@H](N)CCCNC(=N)N)C(N)=O [HP33, rrLLrLLrLLL] (H-[dR][dR]LL[dR]LL[dR]LLL-NH2) ?
Result :: 6

---

# System: A. baumannii ATCC19606
# Details: MH broth pH 7.4, 16–20 h, 37 °C
Measured Attribute: MIC A. baumannii ATCC19606 (µg/mL)
Entry rule: numbers only, all in µg/mL.

Molecule: CC(C)C[C@H](NC(=O)[C@H](CC(C)C)NC(=O)[C@@H](CCCCN)NC(=O)[C@H](CC(C)C)NC(=O)[C@H](CC(C)C)NC(=O)[C@@H](CCCCN)NC(=O)[C@H](N)CCCCN)C(=O)N[C@@H](CCCCN)C(=O)N[C@@H](CC(C)C)C(=O)N[C@H](CC(C)C)C(=O)N[C@H](CC(C)C)C(N)=O [HP26, kkLLkLLKLll]
MIC A. baumannii ATCC19606 (µg/mL): 16

Molecule: CC(C)C[C@H](NC(=O)[C@@H](CC(C)C)NC(=O)[C@H](CCCCN)NC(=O)[C@@H](CC(C)C)NC(=O)[C@H](CC(C)C)NC(=O)[C@@H](CCCCN)NC(=O)[C@H](CC(C)C)NC(=O)[C@@H](CC(C)C)NC(=O)[C@H](CCCCN)NC(=O)[C@H](N)CCCCN)C(=O)N[C@H](CC(C)C)C(N)=O [HP31, kKlLkLlKlLl]
MIC A. baumannii ATCC19606 (µg/mL): 32

Let's switch to this molecule now.
Query :: Which MIC A. baumannii ATCC19606 reading was recorded for the molecule CC(C)C[C@H](NC(=O)[C@H](CC(C)C)NC(=O)[C@H](CC(C)C)NC(=O)[C@H](CCCCN)NC(=O)[C@H](CC(C)C)NC(=O)[C@H](CC(C)C)NC(=O)[C@H](CCCCN)NC(=O)[C@H](CC(C)C)NC(=O)[C@H](CC(C)C)NC(=O)[C@@H](CCCCN)NC(=O)[C@H](N)CCCCN)C(N)=O [HP2] ?
Result :: 4
